assay target: T1, biotin-Aβ1-20 (biotin (position not given))
T1 peptide: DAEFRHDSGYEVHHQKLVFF
protocol description: BIACORE, biotin-Aβ1-20 as antigen; column IgG1#2
pKd: −log10 of the molar value.
metric name: pKd

[[record]]
binder = "20C2-9A, affinity matured humanized 20C2, IgG1 humanized A version (antibody, V domains shown, also called SJ-p2-51) VH: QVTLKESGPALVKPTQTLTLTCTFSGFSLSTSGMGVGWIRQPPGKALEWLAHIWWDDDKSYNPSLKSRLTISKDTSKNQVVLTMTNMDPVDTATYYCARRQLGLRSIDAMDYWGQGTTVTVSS VL: DVVMTQSPLSLPVTPGEPASISCRSSQSILHSNGNTYLEWYLQKPGQSPQLLIYKVSNRFSGVPDRFSGSGSGTDFTLKISRVEAEDVGVYYCVQTSLVPLTFGQGTKLEIKR"
measurement = 9.38

